Listed here are compounds together with their documented log10(IC50).
- assayed target: Angiotensin-converting enzyme (Rattus norvegicus)
- Sequence (P47820 whole entry): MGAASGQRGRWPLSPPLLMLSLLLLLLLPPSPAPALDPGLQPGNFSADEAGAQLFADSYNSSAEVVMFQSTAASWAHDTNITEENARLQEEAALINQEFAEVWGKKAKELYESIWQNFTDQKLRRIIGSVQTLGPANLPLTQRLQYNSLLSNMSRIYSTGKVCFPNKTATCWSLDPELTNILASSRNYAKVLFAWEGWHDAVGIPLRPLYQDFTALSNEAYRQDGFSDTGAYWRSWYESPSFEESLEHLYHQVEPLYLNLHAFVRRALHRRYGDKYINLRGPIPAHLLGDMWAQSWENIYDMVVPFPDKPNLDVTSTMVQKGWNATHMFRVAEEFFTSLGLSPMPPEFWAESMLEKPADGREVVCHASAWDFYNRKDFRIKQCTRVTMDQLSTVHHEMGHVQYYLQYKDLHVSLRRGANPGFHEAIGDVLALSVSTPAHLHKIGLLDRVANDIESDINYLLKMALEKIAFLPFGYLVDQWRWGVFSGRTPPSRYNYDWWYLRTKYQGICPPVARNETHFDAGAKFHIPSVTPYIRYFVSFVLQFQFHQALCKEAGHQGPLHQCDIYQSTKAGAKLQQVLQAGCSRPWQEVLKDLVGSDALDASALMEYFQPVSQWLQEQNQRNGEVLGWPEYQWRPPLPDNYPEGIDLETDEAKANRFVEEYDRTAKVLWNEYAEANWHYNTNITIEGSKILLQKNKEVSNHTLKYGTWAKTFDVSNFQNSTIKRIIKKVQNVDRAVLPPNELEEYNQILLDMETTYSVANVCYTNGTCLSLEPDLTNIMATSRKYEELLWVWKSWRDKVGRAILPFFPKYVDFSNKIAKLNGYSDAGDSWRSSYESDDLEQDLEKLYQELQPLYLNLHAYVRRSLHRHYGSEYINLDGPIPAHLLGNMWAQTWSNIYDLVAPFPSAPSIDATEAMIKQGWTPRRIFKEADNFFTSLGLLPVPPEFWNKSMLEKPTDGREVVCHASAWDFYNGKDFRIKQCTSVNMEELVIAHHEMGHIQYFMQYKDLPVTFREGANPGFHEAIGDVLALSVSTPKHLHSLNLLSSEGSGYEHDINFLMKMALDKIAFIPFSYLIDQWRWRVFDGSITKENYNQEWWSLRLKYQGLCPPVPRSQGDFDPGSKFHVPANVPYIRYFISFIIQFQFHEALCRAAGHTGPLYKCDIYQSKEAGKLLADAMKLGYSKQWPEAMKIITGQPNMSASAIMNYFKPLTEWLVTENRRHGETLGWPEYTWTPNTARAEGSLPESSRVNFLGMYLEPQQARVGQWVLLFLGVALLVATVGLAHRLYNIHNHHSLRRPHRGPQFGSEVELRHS
- protocol text: In vitro inhibition of rat angiotensin I converting enzyme
Hello, just confirming the data are log10 of IC50 with units of nM.

Reference set (3 entries):
compound	assayed target	value observed
Cc1cccc([C@H]2CC[C@@H](C(=O)O)N2C(=O)CNC(=O)[C@@H](S)Cc2ccccc2)c1	Angiotensin-converting enzyme (Rattus norvegicus)	0.79
O=C(NCC(=O)N1[C@@H](c2cccc(O)c2)CC[C@H]1C(=O)O)C(S)Cc1ccc(F)cc1 (stereo partly drawn)	Angiotensin-converting enzyme (Rattus norvegicus)	0.58
COc1ccc(C[C@H](S)C(=O)NCC(=O)N2[C@@H](c3ccccc3O)CC[C@H]2C(=O)O)cc1	Angiotensin-converting enzyme (Rattus norvegicus)	-0.38

Return reported log10(IC50). Input compound: COc1ccccc1[C@H]1CC[C@@H](C(=O)O)N1C(=O)CNC(=O)[C@@H](S)Cc1ccc(O)cc1
0.65

# return recorded log10(IC50) for entry O=C(NCC(=O)N1[C@@H](c2ccc(O)cc2)CC[C@H]1C(=O)O)[C@@H](S)Cc1ccc(O)cc1
-0.34

Provide one value: measured log10(IC50) of O=C(NCC(=O)N1[C@@H](c2ccccc2O)CC[C@H]1C(=O)O)C(S)Cc1ccc(Cl)cc1 (stereo partly drawn)
-0.05

Give the value of log10(IC50) reported for the following: Cc1ccc([C@H]2CC[C@@H](C(=O)O)N2C(=O)CNC(=O)[C@@H](S)Cc2ccccc2)cc1
0.83

Tell us which log10(IC50) value is on record for O=C(NCC(=O)N1[C@@H](c2ccccc2)CC[C@H]1C(=O)O)[C@@H](S)Cc1ccccc1
-0.26
